Ref: PubChem BioAssay AID1963976

Recorded pIC50 for the following compounds
# Test system: 435261-313-R-J1-PDC tumor spheroid viability
# measurement.protocol: Anticancer human tumor 435261-313-R-J1-PDC patient-derived colon adenocarcinoma cell line growth inhibition [PI3K]
# measurement.conditions: curve of first compound; second compound 1 µM; spheroids with HUVEC and MSC
pIC50: −log10 of the molar value.

INSERT INTO measurements (compound, property_name, reported_measurement) VALUES
  ('CCN1CCN(Cc2ccc(Nc3ncc(F)c(-c4cc(F)c5nc(C)n(C(C)C)c5c4)n3)nc2)CC1 + CC(Nc1ccc2c(c1)OCCn1cc(N3C(=O)OCC3C(F)F)nc1-2)C(N)=O', 'pIC50', '> 8.50');

Entry CCCS(=O)(=O)Nc1ccc(F)c(C(=O)c2c[nH]c3ncc(-c4ccc(Cl)cc4)cc23)c1F + COc1c(OCCCN2CCOCC2)ccc2c3n(c(=NC(=O)c4cnc(N)nc4)nc12)CCN3 , system 435261-313-R-J1-PDC tumor spheroid viability: what pIC50 was measured?
> 7.50

Entry Cn1nccc1Nc1nccc(-c2ccn(C(CO)c3ccc(Cl)c(F)c3)c(=O)c2)n1 (stereo unspecified) + Cc1nc(NC(=O)N2CCCC2C(N)=O)sc1-c1ccnc(C(C)(C)C(F)(F)F)c1 , system 435261-313-R-J1-PDC tumor spheroid viability: what pIC50 was measured?
> 7.50

Entry CC(C)NCC(C(=O)N1CCN(c2ncnc3c2C(C)CC3O)CC1)c1ccc(Cl)cc1 (stereo unspecified) + CC(Nc1ccc2c(c1)OCCn1cc(N3C(=O)OCC3C(F)F)nc1-2)C(N)=O , system 435261-313-R-J1-PDC tumor spheroid viability: what pIC50 was measured?
> 7.50

====

Recorded pIC50 for the following compounds
# Test system: 435261-313-R-J1-PDC tumor spheroid viability
# measurement.protocol: Anticancer human tumor 435261-313-R-J1-PDC cell line growth inhibition [PI3K];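 note: spheroids exposed to compounds for 7 days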
# measurement.conditions: curve of first compound; second compound 1 µM; spheroids with HUVEC and MSC
pIC50: −log10 of the molar value.

Solved cases (2 shown):
INSERT INTO results (compound, reported_measurement) VALUES
  ('Cn1nccc1Nc1nccc(-c2ccn(C(CO)c3ccc(Cl)c(F)c3)c(=O)c2)n1 (stereo not drawn) + COc1c(OCCCN2CCOCC2)ccc2c3n(c(=NC(=O)c4cnc(N)nc4)nc12)CCN3', '> 7.50'),
  ('CC1(C)CCC(CN2CCN(c3ccc(C(=O)NS(=O)(=O)c4ccc(NCC5CCOCC5)c([N+](=O)[O-])c4)c(Oc4cnc5[nH]ccc5c4)c3)CC2)=C(c2ccc(Cl)cc2)C1 + Cc1nc(NC(=O)N2CCCC2C(N)=O)sc1-c1ccnc(C(C)(C)C(F)(F)F)c1', '> 7.50');

# input for lookup
What pIC50 value was documented for this compound, CC(=O)c1c(C)c2cnc(Nc3ccc(N4CCNCC4)cn3)nc2n(C2CCCC2)c1=O + CC(Nc1ccc2c(c1)OCCn1cc(N3C(=O)OCC3C(F)F)nc1-2)C(N)=O ?
> 9.50

====

Recorded viability, T/C for the following compounds
# Tested on: 435261-313-R-J1-PDC tumor spheroid viability
# measurement.protocol: Anticancer human tumor 435261-313-R-J1-PDC cell line growth inhibition [PI3K];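 note: spheroids exposed to compounds for 7 days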
# measurement.conditions: second compound 0.0316 µM; first compound 0.0316 µM; stronger effect = lower value; spheroids with HUVEC and MSC
# Excerpt: Combinatorial screen of targeted agents with the PI3K inhibitors inavolisib, alpelisib, duvelisib, and copanlisib in multi-cell type tumor spheroids A high-throughput screen of multi-cell type tumor spheroids was designed to identify active combinations of targeted small molecules and PI3K pathway inhibitors. […] Compounds. […] If the clinical Cmax for an agent had not been determined, the highest concentration tested was 10 microM. […]
The reply should contain only the number, in %.

Solved cases (6 shown):
INSERT INTO assay_data (compound, system_name, property_name, units_symbol, reported_measurement) VALUES
  ('CC(C)n1nc(-c2ccc3oc(N)nc3c2)c2c(N)ncnc21 + Cc1nc(NC(=O)N2CCCC2C(N)=O)sc1-c1ccnc(C(C)(C)C(F)(F)F)c1', '435261-313-R-J1-PDC tumor spheroid viability', 'viability, T/C', '%', 62),
  ('CC1(C)CCC(Nc2ncc(C(F)(F)F)c(-c3c[nH]c4c(P(C)(C)=O)c(C#N)ccc34)n2)CN1 (configuration not stated) + CC(Nc1ccc2c(c1)OCCn1cc(N3C(=O)OCC3C(F)F)nc1-2)C(N)=O', '435261-313-R-J1-PDC tumor spheroid viability', 'viability, T/C', '%', 44.4),
  ('Cn1nccc1Nc1nccc(-c2ccn(C(CO)c3ccc(Cl)c(F)c3)c(=O)c2)n1 (configuration not stated) + Cc1nc(NC(=O)N2CCCC2C(N)=O)sc1-c1ccnc(C(C)(C)C(F)(F)F)c1', '435261-313-R-J1-PDC tumor spheroid viability', 'viability, T/C', '%', 62.5),
  ('CCCS(=O)(=O)Nc1ccc(F)c(C(=O)c2c[nH]c3ncc(-c4ccc(Cl)cc4)cc23)c1F + Cc1nc(NC(=O)N2CCCC2C(N)=O)sc1-c1ccnc(C(C)(C)C(F)(F)F)c1', '435261-313-R-J1-PDC tumor spheroid viability', 'viability, T/C', '%', 68.7),
  ('CC(C)n1nc(-c2ccc3oc(N)nc3c2)c2c(N)ncnc21 + COc1c(OCCCN2CCOCC2)ccc2c3n(c(=NC(=O)c4cnc(N)nc4)nc12)CCN3', '435261-313-R-J1-PDC tumor spheroid viability', 'viability, T/C', '%', 16.4),
  ('C[C@@H](NC(=O)c1ncnc(N)c1Cl)c1ncc(C(=O)Nc2cc(C(F)(F)F)c(Cl)cn2)s1 + COc1c(OCCCN2CCOCC2)ccc2c3n(c(=NC(=O)c4cnc(N)nc4)nc12)CCN3', '435261-313-R-J1-PDC tumor spheroid viability', 'viability, T/C', '%', 32.7);

# input for lookup
What viability, T/C value was documented for this compound, CC1(C)CCC(CN2CCN(c3ccc(C(=O)NS(=O)(=O)c4ccc(NCC5CCOCC5)c([N+](=O)[O-])c4)c(Oc4cnc5[nH]ccc5c4)c3)CC2)=C(c2ccc(Cl)cc2)C1 + COc1c(OCCCN2CCOCC2)ccc2c3n(c(=NC(=O)c4cnc(N)nc4)nc12)CCN3 ?
25.2
